Measured values drawn from Sander's compilation of Henry's law constants (doi:10.1021/jf60162a025) for this set.

Henry solubility constant Hcp for assorted compounds
experiment: Henry solubility constant Hcp at 298.15 K (mol/(m3 Pa)); details: reference: Buttery et al. (1969)

Give the measured Henry solubility constant Hcp of "CCCCC=O" .
0.067

----------
experiment: Henry solubility constant Hcp at 298.15 K (mol/(m3 Pa)); conditions: reference: Buttery et al. (1969)
Assign Y to entries whose Henry solubility constant Hcp meets or exceeds 0.06; assign N to the rest.

Solved cases (5 shown):
CCCCCCC=O ... N
CCCCCC(=O)OC [methyl hexanoate] ... N
CCCCCCO ... Y
CCCCCCCCCC(C)=O ... N
CCCC(C)=O ... Y

Does the compound "CCCCCCCCO" have recorded Henry solubility constant Hcp that is 0.06 or more?
Y

Further, for "CCCC=O" ?
Y

Then this compound: "CCCCCC(C)=O"
Y

How about "CCCCCCC(C)=O" ?
N

Could you do the same for CCCCCCCC(=O)OC [methyl octanoate] , please?
N
